The reported measurements were obtained from patent US8470872B2.

- system_tested: ERα (Homo sapiens)
- Sequence (P03372 whole entry, species assumed): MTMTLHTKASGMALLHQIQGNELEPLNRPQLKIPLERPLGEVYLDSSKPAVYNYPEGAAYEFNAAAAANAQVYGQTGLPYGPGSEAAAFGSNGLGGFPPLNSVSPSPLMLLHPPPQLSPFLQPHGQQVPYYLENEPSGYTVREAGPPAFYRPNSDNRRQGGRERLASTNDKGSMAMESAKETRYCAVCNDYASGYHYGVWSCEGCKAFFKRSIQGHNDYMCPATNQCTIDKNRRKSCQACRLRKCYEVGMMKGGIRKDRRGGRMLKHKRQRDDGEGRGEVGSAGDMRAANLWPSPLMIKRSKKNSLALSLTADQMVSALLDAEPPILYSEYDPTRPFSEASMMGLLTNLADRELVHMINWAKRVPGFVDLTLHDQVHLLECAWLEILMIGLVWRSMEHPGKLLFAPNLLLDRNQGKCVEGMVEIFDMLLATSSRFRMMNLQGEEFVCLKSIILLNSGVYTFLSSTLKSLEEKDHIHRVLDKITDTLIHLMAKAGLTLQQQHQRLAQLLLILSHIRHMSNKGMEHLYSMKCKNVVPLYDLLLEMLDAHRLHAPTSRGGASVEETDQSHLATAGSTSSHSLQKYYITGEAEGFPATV
- test_summary: R-SAT (Receptor Selection and Amplification Technology) functional assay, ERα
- Assay type: cell-based
- Set-up: expressed in transfected cells; host or cells: NIH-3T3 fibroblasts, transient transfection
- condition_details: NIH-3T3 fibroblasts transfected with receptor; na = not active
readout_type: R-SAT ERα % Eff (%)

compound: Oc1ccc(C23CCCCC2Oc2ccccc23)cc1 (stereo not drawn)
u: %
R-SAT ERα % Eff: 95

compound: Oc1ccc(C23CCCCCC2Oc2cccc(F)c23)cc1 (single isomer, unassigned) [Compound 982]
u: %
R-SAT ERα % Eff: 108

compound: Oc1ccc(C23CCCCC2Oc2cccc(F)c23)cc1 (stereo not drawn)
u: %
R-SAT ERα % Eff: 70

compound: Oc1ccc(C23CCCCCC2Oc2cccc(F)c23)cc1 (single isomer, unassigned) [Compound 231]
u: %
R-SAT ERα % Eff: 86

compound: Oc1ccc(C23CCCCCC2Oc2ccccc23)cc1 (stereo not drawn)
u: %
R-SAT ERα % Eff: 93

a. Oc1ccc(C23CCCCCC2Oc2c(F)cccc23)cc1 (stereo not drawn)
b. Oc1ccc(C23CCCCCC2Oc2cccc(F)c23)cc1 (single isomer, unassigned) [Compound 232]
c. Oc1ccc(C23CCCCC=C2Oc2cccc(F)c23)cc1 (stereo not drawn)
*Q* Rank items: key R-SAT ERα % Eff, increasing. The reply should contain the labels ordered as requested.
*A* c, b, a
